EXPERIMENTAL_SYSTEM: T1, GFP-9S library array, motif 4 ND N98I;D124N (synthetic construct, N98I;D124N)
T1 chain: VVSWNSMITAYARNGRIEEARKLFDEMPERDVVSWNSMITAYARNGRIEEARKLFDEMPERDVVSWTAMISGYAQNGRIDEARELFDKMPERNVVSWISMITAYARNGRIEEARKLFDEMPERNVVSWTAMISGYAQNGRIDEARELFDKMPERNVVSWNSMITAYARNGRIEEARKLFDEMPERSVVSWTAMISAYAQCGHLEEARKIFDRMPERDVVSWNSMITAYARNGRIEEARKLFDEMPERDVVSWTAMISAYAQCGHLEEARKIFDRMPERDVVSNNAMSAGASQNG
ASSAY_REMARKS: high-throughput RNA pulldown from lysate on Ni-NTA beads; HRP: 50 mM Tris pH 8, 150 mM NaCl, 1 mM beta-mercaptoethanol, 50 ug/ml BSA, 3 ug/ml yeast RNA, 0.5% heparin; ITC and FP: Tris pH 8, 200 mM KCl, 5% glycerol; MST: 50 mM Tris pH 8, 200 mM NaCl, 1 mM DTT, BSA, heparin, 0.05% Tween 20
REPORTED_CONDITIONS: tags: N-terminal His-eGFP; label: 5' Cy5
Item-by-item account of Kd

>  <BINDER>
AUUACACGUGA (ssRNA) [Cy5-rpoA]

>  <Kd (nM)>
96.4

$$$$
>  <BINDER>
AUUAGACGUGA (ssRNA) [Cy5-rpoA-G]

>  <Kd (nM)>
117

$$$$

// provenance: paper PMC8809517
